compounds and their reported selectivity ratio
# method_summary: Selectivity index, ratio of IC50 for african green monkey Vero cells to IC50 for epimastigote form of Trypanosoma cruzi
# Format: toxicity, cell-based
# test_parameters: Vero cells (versus epimastigote form of Trypanosoma cruzi), read-out: Ratio IC50
value_type: selectivity ratio

• O=c1c(O[C@@H]2O[C@H](CO)[C@@H](O)[C@H](O)[C@H]2O)c(-c2ccc(O)cc2)oc2cc(O)cc(O)c12 = 11.1
• CC(=O)O[C@H]1[C@H](Oc2c(-c3ccc(O)cc3)oc3cc(O)cc(O)c3c2=O)O[C@H](CO)[C@@H](O)[C@@H]1O = 45.2
• CC(=O)OC[C@H]1O[C@@H](Oc2c(-c3ccc(OC(C)=O)cc3)oc3cc(OC(C)=O)cc(OC(C)=O)c3c2=O)[C@H](OC(C)=O)[C@@H](OC(C)=O)[C@@H]1OC(C)=O [ASTRAGALIN HEPTAACETATE] = 205

---

# method_summary: Selectivity index, ratio of IC50 for african green monkey Vero cells to IC50 for epimastigote form of Trypanosoma cruzi
# Assay type: toxicity, cell-based
# test_parameters: Vero cells (versus epimastigote form of Trypanosoma cruzi), read-out: Ratio IC50
// reported selectivity ratio per item
value_type: selectivity ratio

- CC(=O)O[C@H]1[C@H](Oc2c(-c3ccc(O)c(O)c3)oc3cc(O[C@H]4O[C@H](C)[C@@H](O)[C@H](O)[C@@H]4O)cc(O)c3c2=O)O[C@H](CO)[C@@H](O)[C@@H]1O: > 36.6
- C[C@H]1O[C@H](Oc2cc(O)c3c(=O)c(O[C@@H]4O[C@H](CO)[C@@H](O)[C@H](O)[C@H]4O)c(-c4ccc(O)c(O)c4)oc3c2)[C@@H](O)[C@@H](O)[C@@H]1O [PETIOLAROSIDE]: > 33
- CC(=O)O[C@H]1[C@H](Oc2c(-c3ccc(O)cc3)oc3cc(O[C@@H]4O[C@H](CO)[C@@H](O)[C@H](O)[C@H]4O)cc(O)c3c2=O)O[C@H](CO)[C@@H](O)[C@@H]1O: > 46.1
- CC(=O)OC[C@H]1O[C@@H](Oc2cc(OC(C)=O)c3c(=O)c(O[C@@H]4O[C@H](COC(C)=O)[C@@H](OC(C)=O)[C@H](OC(C)=O)[C@H]4OC(C)=O)c(-c4ccc(OC(C)=O)cc4)oc3c2)[C@H](OC(C)=O)[C@@H](OC(C)=O)[C@@H]1OC(C)=O [PAEONOSIDE DECAACETATE]: > 58.1

Where do the numbers come from? From ChEMBL document CHEMBL1772982.
